Reference source: ChEMBL document CHEMBL5579859

# targetEntity: UniProt:P04629
pIC50: −log10 of the molar value.

structureNotation	pIC50
Fc1ccc(OCC(F)F)c(CNc2ccc3[nH]nc(-n4cncn4)c3c2)c1	9.00

---

The following compounds have recorded IC50 on NT-3 growth factor receptor (Homo sapiens, UniProt Q16288).
Sequence (Q16288 whole entry): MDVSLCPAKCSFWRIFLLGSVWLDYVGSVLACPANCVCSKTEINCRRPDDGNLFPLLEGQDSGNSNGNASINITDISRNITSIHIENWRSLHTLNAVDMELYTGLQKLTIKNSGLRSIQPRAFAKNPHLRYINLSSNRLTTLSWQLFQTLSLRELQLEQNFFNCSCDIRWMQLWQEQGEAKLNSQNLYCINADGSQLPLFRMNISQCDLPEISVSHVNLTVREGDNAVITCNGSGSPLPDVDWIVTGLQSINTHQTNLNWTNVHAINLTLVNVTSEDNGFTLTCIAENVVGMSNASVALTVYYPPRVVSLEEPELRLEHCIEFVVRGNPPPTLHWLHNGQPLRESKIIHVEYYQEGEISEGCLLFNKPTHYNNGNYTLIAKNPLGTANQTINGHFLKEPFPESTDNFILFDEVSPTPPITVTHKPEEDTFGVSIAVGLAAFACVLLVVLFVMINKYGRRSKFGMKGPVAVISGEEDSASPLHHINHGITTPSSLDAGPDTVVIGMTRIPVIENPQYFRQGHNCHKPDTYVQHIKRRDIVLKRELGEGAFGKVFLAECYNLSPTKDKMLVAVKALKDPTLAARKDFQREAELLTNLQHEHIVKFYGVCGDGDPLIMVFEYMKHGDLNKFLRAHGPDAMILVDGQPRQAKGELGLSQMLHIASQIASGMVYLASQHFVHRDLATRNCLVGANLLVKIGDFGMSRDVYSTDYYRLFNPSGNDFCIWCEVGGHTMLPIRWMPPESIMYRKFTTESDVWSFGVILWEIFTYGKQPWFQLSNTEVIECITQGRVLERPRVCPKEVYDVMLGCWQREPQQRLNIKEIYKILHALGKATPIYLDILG
parameterMeasured: IC50 (nM)

structureNotation	parameterMeasured	units	resultNumber
Fc1ccc(OCC(F)F)c(CNc2ccc3[nH]nc(-n4cncn4)c3c2)c1	IC50	nM	2
N#Cc1n[nH]c2ccc(NCc3cc(F)ccc3OCC(F)F)cc12	IC50	nM	3
Fc1ccc(OCC(F)F)c(CNc2ccc3[nH]nc(-n4ccnn4)c3c2)c1	IC50	nM	4

---

# Tested on: BaF3
# testDetails: cells
# conditionSummary: Mus musculus, BaF3, 72 h
parameterMeasured: IC50

structureNotation	targetEntity	parameterMeasured	result
C[C@@H]1CCc2ncc(F)cc2[C@H]2CCCN2c2ccn3ncc(c3n2)C(=O)N1	BaF3	IC50	113 nM
Fc1ccc(OCC(F)F)c(CNc2ccc3[nH]nc(-n4ccnn4)c3c2)c1	BaF3	IC50	136 nM
Fc1ccc(OCC(F)F)c(CNc2ccc3[nH]nc(-n4cncn4)c3c2)c1	BaF3	IC50	64.1 nM

---

# targetEntity: High affinity nerve growth factor receptor (Homo sapiens, UniProt P04629, G595R)
# Sequence (P04629 33-796 G595R limits assumed): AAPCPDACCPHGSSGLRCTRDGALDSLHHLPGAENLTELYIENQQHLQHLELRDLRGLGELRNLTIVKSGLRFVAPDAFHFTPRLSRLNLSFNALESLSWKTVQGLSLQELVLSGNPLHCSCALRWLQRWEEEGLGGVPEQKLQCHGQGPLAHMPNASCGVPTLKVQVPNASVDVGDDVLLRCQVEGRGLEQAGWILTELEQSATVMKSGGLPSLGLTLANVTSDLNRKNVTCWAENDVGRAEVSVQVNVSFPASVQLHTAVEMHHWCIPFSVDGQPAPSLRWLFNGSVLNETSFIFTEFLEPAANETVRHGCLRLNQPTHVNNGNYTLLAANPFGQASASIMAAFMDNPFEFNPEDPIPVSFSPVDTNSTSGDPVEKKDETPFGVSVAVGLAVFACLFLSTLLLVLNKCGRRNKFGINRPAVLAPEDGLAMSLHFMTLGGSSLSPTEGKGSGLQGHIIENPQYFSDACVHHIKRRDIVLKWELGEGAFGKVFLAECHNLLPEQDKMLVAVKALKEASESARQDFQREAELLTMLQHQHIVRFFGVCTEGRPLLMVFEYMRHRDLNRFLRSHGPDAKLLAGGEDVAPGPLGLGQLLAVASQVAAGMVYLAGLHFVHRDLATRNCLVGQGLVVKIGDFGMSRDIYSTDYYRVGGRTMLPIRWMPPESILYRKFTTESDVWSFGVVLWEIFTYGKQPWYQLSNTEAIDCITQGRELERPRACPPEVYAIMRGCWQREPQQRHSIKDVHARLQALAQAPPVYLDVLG
# testDetails: Inhibition of TRKA G595R mutant (unknown origin) using TK as substrate incubated for 30 mins in presence of ATP by HTRF assay
pIC50: −log10 of the molar value.

molecule	qualifierOperator	pIC50
COc1ccc(F)cc1CNc1ccc2[nH]nc(C(=O)NCC(F)F)c2c1	=	5.07
COc1ccc(F)cc1CNc1ccc2[nH]nc(-n3cc(F)cn3)c2c1	=	6.46
COc1ccc(F)cc1CNc1ccc2[nH]nc(C#N)c2c1	=	6.77
COc1ccc(F)cc1CNc1ccc2[nH]nc(-n3cnc(C(F)(F)F)c3)c2c1	=	6.24
COc1ccc(F)cc1CNc1ccc2[nH]nc(C(=O)N3CCC(O)C3)c2c1 (stereo unspecified)	<	4.30
CNC(=O)c1n[nH]c2ccc(NCc3cc(F)ccc3OC3CCOC3)cc12 (stereo unspecified)	=	6.68

---

# targetEntity: High affinity nerve growth factor receptor (Homo sapiens, UniProt P04629, G667C)
# Sequence (P04629 33-796 G667C limits assumed): as the sequence (P04629 33-796 G595R limits assumed) above, with R563G, G635C counted along it
# testDetails: Inhibition of TRKA G667C mutant (unknown origin) using TK as substrate incubated for 30 mins in presence of ATP by HTRF assay
pIC50: −log10 of the molar value.

structureNotation	pIC50
Fc1ccc(OCC(F)F)c(CNc2ccc3[nH]nc(-n4ccnn4)c3c2)c1	7.21
Fc1ccc(OCC(F)F)c(CNc2ccc3[nH]nc(-n4cncn4)c3c2)c1	7.60
N#Cc1n[nH]c2ccc(NCc3cc(F)ccc3OCC(F)F)cc12	5.92
Fc1ccc(OCC(F)F)c(CNc2ccc3[nH]nc(-c4cnoc4)c3c2)c1	7.31

---

# targetEntity: High affinity nerve growth factor receptor (Homo sapiens, UniProt P04629, F589L)
# Sequence (P04629 33-796 F589L limits assumed): as the sequence (P04629 33-796 G595R limits assumed) above, with F557L, R563G counted along it
# testDetails: Inhibition of TRKA F589L mutant (unknown origin) using TK as substrate incubated for 30 mins in presence of ATP by HTRF assay

structureNotation	IC50, nM
Fc1ccc(OCC(F)F)c(CNc2ccc3[nH]nc(-c4cnoc4)c3c2)c1	8
N#Cc1n[nH]c2ccc(NCc3cc(F)ccc3OCC(F)F)cc12	10
Fc1ccc(OCC(F)F)c(CNc2ccc3[nH]nc(-n4cncn4)c3c2)c1	1
Fc1ccc(OCC(F)F)c(CNc2ccc3[nH]nc(-n4ccnn4)c3c2)c1	2
